- Tested on: MKL-2
- experiment: qHTS assay to identify novel small-molecules to repurpose for Merkel cell carcinoma treatment (AID 1296009); further: nearly all actives have a fitted effect of over 60% in size
- assay context: MCC and control cell lines, CellTiter-Glo viability, 72 h; series mostly up to 46 µM
Records with an inconclusive call do not appear. Activity calls are given as the source filed them. The call rests on the fitted dose curve; in most records, active means well fitted inhibition curve with a large enough effect; inconclusive means small, poorly fitted or top-dose-only effect; inactive means flat fitted curve, though single readings scatter.
Outcome codes: active, inactive

1. CNC(=O)c1c(I)c(NC(=O)CCCCC(=O)Nc2c(I)c(C(=O)O)c(I)c(C(=O)NC)c2I)c(I)c(C(=O)O)c1I: inactive
2. COC(=O)C1=C(C)NC(C)=C(C(=O)OCC(C)C)C1c1ccccc1[N+](=O)[O-] (configuration not stated): active
3. CCOc1ccc2nc(S(N)(=O)=O)sc2c1: inactive
4. Cc1c(N)c(=O)n(-c2ccccc2)n1C: inactive
5. COC(=O)c1nc(Cl)c(Cl)nc1N: active
6. C[N+]1(C)[C@@H]2CC(OC(=O)[C@H](CO)c3ccccc3)C[C@H]1[C@@H]1O[C@@H]12 (some centres not stated): inactive
7. CCC1C(=O)OCC1Cc1cncn1C (configuration not stated): inactive
8. O=C(O)/C=C\C(=O)O: inactive
9. C/C(=N\O)c1ccc(OCC(=O)N2CCCCC2)cc1: inactive
10. Cc1c(C(=O)O)c(O)cc2c1C(=O)c1c(O)c([C@@H]3O[C@H](CO)[C@@H](O)[C@H](O)[C@H]3O)c(O)c(O)c1C2=O: inactive
11. CN(C)CCn1nnnc1SCC1=C(C(=O)O)N2C(=O)[C@@H](NC(=O)Cc3csc(N)n3)[C@H]2SC1: inactive
12. CCCCCCCCCCCCCCCC(=O)OC(C)C: inactive
13. CCCCC1C(=O)N(c2ccccc2)N(c2ccc(O)cc2)C1=O (configuration not stated): active
14. O=C(O)Cc1ccc(-c2ccccc2)cc1: inactive
15. CN1CC(=O)N/C1=N/C(=O)Nc1cccc(Cl)c1: inactive
16. COc1ccnc2c1CCCCC2S(=O)c1nc2ccccc2[nH]1 (configuration not stated): inactive
17. CCCOC(=O)c1ccc(O)cc1: inactive
18. COc1cc2c3cc1Oc1cc(ccc1O)C[C@@H]1c4c(cc(OC)c(O)c4Oc4ccc(cc4)C[C@@H]3N(C)CC2)CC[N+]1(C)C: inactive
19. CC(C(=O)O)c1ccc2c(c1)[nH]c1ccc(Cl)cc12 (configuration not stated): inactive
20. CCCCCCCC/C=C/C(=O)O: inactive
21. CC(C(=O)O)c1ccc(C(=O)c2ccccc2)s1 (configuration not stated): inactive
22. O=C(OCc1ccccc1)c1ccccc1: inactive
